Data credit: ChEMBL document CHEMBL4808165

- TEST PROTOCOL: Apparent permeability across apical to basolateral membrane in MDCKII-LE cells measured after 120 mins by RapidFire-MS analysis
- Type: ADME, cell-based, Canis lupus familiaris
- EXPERIMENTAL CONDITIONS: dog, MDCK
Positions of bridges follow the written chain, without caps; N, C: chain ends. Non-standard residues stand in square brackets, D forms with d. Residues, ends and D or L forms follow the SMILES beside them. NMeF = CN[C@@H](Cc1ccccc1)C(=O)O; NMeNle = CCCC[C@H](NC)C(=O)O; Nle = CCCC[C@H](N)C(=O)O
Task for the reader: assign each of the following molecules its reported Papp A→B at 2 h.
Only the number, expressed in ×10⁻⁶ cm/s, is required.

INPUT: Report measured Papp A→B at 2 h; entry is CCCC[C@@H]1NC(=O)C2CCCN2C(=O)[C@H](CCCC)NC(=O)[C@H](Cc2ccccc2)NC(=O)CSC[C@H](C(=O)NC)NC(=O)[C@H](CCCC)NC1=O (some centres undefined)
OUTPUT: 0.6

INPUT: Quick one: give measured Papp A→B at 2 h for "CCCC[C@@H]1NC(=O)[C@H](CCCC)N(C)C(=O)[C@H](CCCC)NC(=O)[C@H](CCCC)N(C)C(=O)[C@@H](Cc2ccccc2)NC(=O)CSC[C@H](C(=O)NC)NC1=O"
OUTPUT: 1.5

INPUT: # return recorded Papp A→B at 2 h for input "CCCC[C@@H]1NC(=O)[C@H](Cc2ccccc2)NC(=O)CSC[C@H](C(=O)NC)NC(=O)[C@H](CCCC)NC(=O)[C@H](CCCC)NC(=O)[C@H](CCCC)NC1=O"
OUTPUT: 0.6

INPUT: Item CCCC[C@@H]1NC(=O)[C@H](Cc2ccccc2)N(C)C(=O)[C@@H]2CCCN2C(=O)[C@H](CCCC)N(C)C(=O)[C@H](Cc2ccccc2)NC(=O)CSC[C@@H](C(=O)NC)NC(=O)[C@H](CCCC)N(C)C1=O ({CH2CO}-F[NMeNle]P[NMeF][Nle][NMeNle]C-NHMe; thioether N-7) : provide Papp A→B at 2 h
OUTPUT: 2.3

INPUT: Read off the recorded Papp A→B at 2 h for CCCC[C@@H]1NC(=O)[C@H](Cc2ccccc2)N(C)C(=O)CSC[C@H](C(=O)NC)N(C)C(=O)[C@H](CCCC)NC(=O)[C@H](CCCC)N(C)C(=O)C2CCCN2C1=O (some centres undefined)
OUTPUT: 6.3

INPUT: Determine its reported Papp A→B at 2 h: "CCCC[C@@H]1NC(=O)[C@H](Cc2ccccc2)NC(=O)CSC[C@H](C(=O)NC)NC(=O)[C@H](CCCC)N(C)C(=O)[C@H](CCCC)NC(=O)[C@H](CCCC)N(C)C1=O"
OUTPUT: 3.9

INPUT: Please supply the value of reported Papp A→B at 2 h for the item "CCCC[C@@H]1NC(=O)[C@H](CCCC)NC(=O)[C@H]2CCCN2C(=O)[C@H](CCCC)NC(=O)[C@H](Cc2ccccc2)NC(=O)CSC[C@H](C(=O)NC)NC(=O)[C@H](CCCC)NC1=O"
OUTPUT: 0.2

INPUT: Return Papp A→B at 2 h for the following molecule: "CCCC[C@@H]1NC(=O)[C@H](Cc2ccccc2)N(C)C(=O)CSC[C@H](C(=O)NC)N(C)C(=O)[C@H](CCCC)NC(=O)[C@H](CCCC)N(C)C(=O)[C@H](CCCC)NC1=O"
OUTPUT: 8

INPUT: Name the recorded Papp A→B at 2 h of the molecule listed here: CCCC[C@@H]1NC(=O)[C@H](CCCC)N(C)C(=O)[C@@H]2CCCN2C(=O)[C@H](CCCC)N(C)C(=O)[C@H](Cc2ccccc2)NC(=O)CSC[C@@H](C(=O)NC)NC(=O)[C@H](CCCC)N(C)C1=O ({CH2CO}-F[NMeNle]P[NMeNle][Nle][NMeNle]C-NHMe; thioether N-7)
OUTPUT: 6.4

INPUT: Note Papp A→B at 2 h for the molecule shown: "CCCC[C@@H]1NC(=O)[C@H](CCCC)NC(=O)[C@H](CCCC)NC(=O)[C@@H](Cc2ccccc2)NC(=O)CSC[C@H](C(=O)NC)NC(=O)[C@H](CCCC)NC1=O"
OUTPUT: 0.4

INPUT: Assign Papp A→B at 2 h to the following record: CCCC[C@@H]1NC(=O)[C@H](CCCC)NC(=O)[C@H](CCCC)N(C)C(=O)[C@@H]2CCCN2C(=O)[C@H](CCCC)N(C)C(=O)[C@H](Cc2ccccc2)NC(=O)CSC[C@@H](C(=O)NC)NC1=O ({CH2CO}-F[NMeNle]P[NMeNle][Nle][Nle]C-NHMe; thioether N-7)
OUTPUT: 0.8
